Provide the recorded IC50 for the entries that follow.
test system: 855422-203-R-J1-PDC complex spheroid viability; experiment: Anticancer human tumor 855422-203-R-J1-PDC patient-derived bladder carcinoma cell line growth inhibition [POLQ]; settings: curve of first compound; second compound 1 µM
Give bare numbers, in nM.

Look over these answered cases.
CC1COCCN1c1cc(C2(S(C)(=N)=O)CC2)nc(-c2ccnc3[nH]ccc23)n1 (stereo not given) + COC1C(OC(N)=O)C(O)C(Oc2ccc3c(O)c(NC(=O)c4ccc(O)c(CC=C(C)C)c4)c(=O)oc3c2C)OC1(C)C    2710
Nc1ccn(C2OC(CO)C(O)C2(F)F)c(=O)n1 (stereo not given) + COC1C(OC(N)=O)C(O)C(Oc2ccc3c(O)c(NC(=O)c4ccc(O)c(CC=C(C)C)c4)c(=O)oc3c2C)OC1(C)C    58.8
CCc1cc2c(N3CCc4c(cc(Cn5ccnc5)cc4-c4cn(C)nc4C(F)(F)F)C3=O)ccnc2c(OC)n1 + Nc1ccc(C#CCN(C(=O)Cc2ncc(C(F)(F)F)cc2C(F)(F)F)c2ccc(F)cc2)nn1    8550

Now turn to the next compound.
Exam item: Look up IC50 for this compound: COc1cc(C2c3cc4c(cc3C(OC3OC5COC(C)OC5C(O)C3O)C3COC(=O)C23)OCO4)cc(OC)c1O (stereo not given) + COC1C(OC(N)=O)C(O)C(Oc2ccc3c(O)c(NC(=O)c4ccc(O)c(CC=C(C)C)c4)c(=O)oc3c2C)OC1(C)C
Marked response: 234

###

tested on: 855422-203-R-J1-PDC complex spheroid viability; test: Anticancer human tumor 855422-203-R-J1-PDC cell line growth inhibition [POLQ]; details: second compound 10 µM; first compound 1 µM; active = viability on the fitted dose curve at most 10% of control; inactive = the rest;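 also: spheroids exposed to compounds for seven days before readout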
Use one of these outcomes when replying: active, inactive

Exam item: Dear colleague, could you share the recorded outcome for CC(C)n1c(=O)n(C)c2cnc3cc(F)c(-c4ccc(OCCCN5CCCCC5)nc4)cc3c21 + Cc1cccc(N(C)C(=O)C2C(O)CCN2c2nc(C)cc(C(F)(F)F)c2C#N)c1 when you have a moment?
Marked response: inactive

###

test system: 855422-203-R-J1-PDC complex spheroid viability; assay: Anticancer human tumor 855422-203-R-J1-PDC cell line growth inhibition [POLQ]; conditions: second compound 10 µM; first compound 1 µM; stronger effect = lower value;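 also: spheroids exposed to compounds for seven days before readout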
experimental endpoint: viability, T/C (%)
Answers are plain numbers, in %.

// known answers, use as guide
C=CC(=O)N1CCN(c2nc(=O)n(-c3c(C)ccnc3C(C)C)c3nc(-c4c(O)cccc4F)c(F)cc23)C(C)C1 (stereo not given) + COC1C(OC(N)=O)C(O)C(Oc2ccc3c(O)c(NC(=O)c4ccc(O)c(CC=C(C)C)c4)c(=O)oc3c2C)OC1(C)C    103
COc1ccc([C@@H](O)c2cc(-c3ncnc4cc(N5CCOCC5)ccc34)c(F)cc2Cl)nn1 + Nc1ccc(C#CCN(C(=O)Cc2ncc(C(F)(F)F)cc2C(F)(F)F)c2ccc(F)cc2)nn1    86.2
O=C(c1cc(Cc2n[nH]c(=O)c3ccccc23)ccc1F)N1CCN(C(=O)C2CC2)CC1 + COC1C(OC(N)=O)C(O)C(Oc2ccc3c(O)c(NC(=O)c4ccc(O)c(CC=C(C)C)c4)c(=O)oc3c2C)OC1(C)C    96.7

Look up viability, T/C for the entries below, preserving their order.
1. COc1ccc([C@@H](O)c2cc(-c3ncnc4cc(N5CCOCC5)ccc34)c(F)cc2Cl)nn1 + COC1C(OC(N)=O)C(O)C(Oc2ccc3c(O)c(NC(=O)c4ccc(O)c(CC=C(C)C)c4)c(=O)oc3c2C)OC1(C)C
2. O=c1[nH]cc(F)c(=O)[nH]1 + Cc1cccc(N(C)C(=O)C2C(O)CCN2c2nc(C)cc(C(F)(F)F)c2C#N)c1

Marked response:
[91.2, 40.1]
